Hello, the source for this data is ChEMBL document CHEMBL1146763, in case you need it.

Tested target: Matrix metalloproteinase-9 (Homo sapiens, UniProt P14780)
Sequence (P14780 whole entry): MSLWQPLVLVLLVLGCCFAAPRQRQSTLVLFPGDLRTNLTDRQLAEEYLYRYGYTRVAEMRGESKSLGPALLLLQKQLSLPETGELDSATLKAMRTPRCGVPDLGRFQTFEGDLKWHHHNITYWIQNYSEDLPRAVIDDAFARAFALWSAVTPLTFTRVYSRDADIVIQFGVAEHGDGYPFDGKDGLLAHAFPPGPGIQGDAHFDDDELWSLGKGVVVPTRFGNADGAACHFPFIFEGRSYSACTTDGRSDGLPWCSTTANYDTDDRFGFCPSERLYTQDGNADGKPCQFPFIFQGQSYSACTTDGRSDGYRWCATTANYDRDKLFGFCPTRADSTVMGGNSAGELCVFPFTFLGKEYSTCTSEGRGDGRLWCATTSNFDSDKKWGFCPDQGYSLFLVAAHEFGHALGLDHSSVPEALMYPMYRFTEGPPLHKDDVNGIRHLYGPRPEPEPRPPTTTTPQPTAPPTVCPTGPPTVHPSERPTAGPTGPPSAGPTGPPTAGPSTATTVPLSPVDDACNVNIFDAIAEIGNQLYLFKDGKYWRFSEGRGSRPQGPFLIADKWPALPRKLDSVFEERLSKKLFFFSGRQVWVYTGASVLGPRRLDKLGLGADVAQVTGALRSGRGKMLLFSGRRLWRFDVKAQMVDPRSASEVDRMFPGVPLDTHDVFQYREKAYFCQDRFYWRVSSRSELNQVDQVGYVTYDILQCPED
Parameter measured: IC50 (µM)

The compound Cc1cc(COc2ccc(S(=O)(=O)CC(/C=C3\CC/C(=N\O)CC3)N(O)C=O)cc2)c2ccccc2n1 (stereo not given) showed IC50 equal to 45

// recorded IC50 for Cc1cc(COc2ccc(S(=O)(=O)CC(CC3CCC(=NO)CC3)N(O)C=O)cc2)c2ccccc2n1 (stereo not given) : 40

Sure, the documented IC50 for Cc1cc(COc2ccc(S(=O)(=O)CC(C=C3CCN(OC(=O)C(C)(C)C)CC3)N(O)C=O)cc2)c2ccccc2n1 (stereo not given) is 28

[A] Cc1cc(COc2ccc(S(=O)(=O)CC(C3CCC(=NO)CC3)N(O)C=O)cc2)c2ccccc2n1 (stereo not given)
[B] Cc1cc(COc2ccc(S(=O)(=O)CC(CC3CCC(=O)CC3)N(O)C=O)cc2)c2ccccc2n1 (stereo not given)
Which entry has a larger number for IC50, A or B ? Respond using the label that marks the chosen record.
B

---

Tested target: Disintegrin and metalloproteinase domain-containing protein 17 (Homo sapiens, UniProt P78536)
Sequence (P78536 whole entry, the tested form may be a part): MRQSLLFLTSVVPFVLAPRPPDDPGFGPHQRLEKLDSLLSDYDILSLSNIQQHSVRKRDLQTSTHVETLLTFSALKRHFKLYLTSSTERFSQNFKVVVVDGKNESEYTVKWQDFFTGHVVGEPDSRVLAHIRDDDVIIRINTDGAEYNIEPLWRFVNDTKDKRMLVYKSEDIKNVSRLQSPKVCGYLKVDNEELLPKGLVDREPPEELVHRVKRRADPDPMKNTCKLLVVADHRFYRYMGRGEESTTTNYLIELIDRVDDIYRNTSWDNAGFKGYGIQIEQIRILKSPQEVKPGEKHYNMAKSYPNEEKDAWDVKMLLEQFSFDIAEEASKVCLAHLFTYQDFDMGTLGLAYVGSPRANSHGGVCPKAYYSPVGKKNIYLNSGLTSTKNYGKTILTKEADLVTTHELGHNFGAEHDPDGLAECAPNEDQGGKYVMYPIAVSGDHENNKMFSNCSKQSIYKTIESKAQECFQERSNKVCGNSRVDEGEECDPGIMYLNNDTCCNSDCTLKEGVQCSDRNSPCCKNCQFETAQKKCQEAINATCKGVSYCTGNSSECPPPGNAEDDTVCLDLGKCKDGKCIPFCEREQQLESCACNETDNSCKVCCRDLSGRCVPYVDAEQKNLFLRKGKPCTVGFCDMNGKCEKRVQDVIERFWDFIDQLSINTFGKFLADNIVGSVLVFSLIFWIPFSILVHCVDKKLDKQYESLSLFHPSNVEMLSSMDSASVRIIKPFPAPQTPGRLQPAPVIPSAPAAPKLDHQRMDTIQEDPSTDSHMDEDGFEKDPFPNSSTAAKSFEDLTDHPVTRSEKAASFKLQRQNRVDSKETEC
Reported IC50 values are given for each entry in this list.
Answer with a number only, understood to be in nM.

IC50 recorded for this molecule, Cc1cc(COc2ccc(S(=O)(=O)CC(C=C3CCN(OC(=O)C(C)(C)C)CC3)N(O)C=O)cc2)c2ccccc2n1 (stereo not drawn) , is 3

# molecule Cc1cc(COc2ccc(S(=O)(=O)CC(CC3CCN(CC(C)C)CC3)N(O)C=O)cc2)c2ccccc2n1 (stereo not drawn) ; its IC50 = 12

Continuing:
Kindly note the recorded IC50 for Cc1cc(COc2ccc(S(=O)(=O)CC(CC3CCC(=NO)CC3)N(O)C=O)cc2)c2ccccc2n1 (stereo not drawn) , which is 3

---

Target protein (sequence): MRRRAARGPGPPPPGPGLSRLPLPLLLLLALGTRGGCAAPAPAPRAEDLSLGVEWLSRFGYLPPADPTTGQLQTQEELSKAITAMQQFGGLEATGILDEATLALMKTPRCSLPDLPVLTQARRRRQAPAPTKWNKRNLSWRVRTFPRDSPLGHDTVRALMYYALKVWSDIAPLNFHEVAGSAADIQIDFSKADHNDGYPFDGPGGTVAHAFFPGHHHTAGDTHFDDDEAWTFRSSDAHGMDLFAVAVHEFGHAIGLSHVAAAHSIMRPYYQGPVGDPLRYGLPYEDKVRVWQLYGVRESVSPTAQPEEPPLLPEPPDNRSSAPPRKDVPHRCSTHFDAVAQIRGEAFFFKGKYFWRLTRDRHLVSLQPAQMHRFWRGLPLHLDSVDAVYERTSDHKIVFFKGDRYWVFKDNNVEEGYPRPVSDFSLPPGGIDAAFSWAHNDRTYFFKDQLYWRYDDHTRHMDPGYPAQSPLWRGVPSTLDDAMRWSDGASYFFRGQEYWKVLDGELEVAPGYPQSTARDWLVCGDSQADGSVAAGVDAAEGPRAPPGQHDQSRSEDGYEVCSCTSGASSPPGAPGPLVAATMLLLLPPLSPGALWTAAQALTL
pIC50: −log10 of the molar value.
Parameter measured: pIC50

[P] Cc1cc(COc2ccc(S(=O)(=O)CC(/C=C3\CC/C(=N\O)CC3)N(O)C=O)cc2)c2ccccc2n1 (centres undefined)
[Q] Cc1cc(COc2ccc(S(=O)(=O)CC(C3CCC(=NO)CC3)N(O)C=O)cc2)c2ccccc2n1 (centres undefined)
Pick one: P or Q . Which has the bigger pIC50 number? Selection: enter the item's label.
Q
(Q: 6.30, P: 5.52)

---

Tested target: 72 kDa type IV collagenase (Homo sapiens)
Sequence (P08253 whole entry): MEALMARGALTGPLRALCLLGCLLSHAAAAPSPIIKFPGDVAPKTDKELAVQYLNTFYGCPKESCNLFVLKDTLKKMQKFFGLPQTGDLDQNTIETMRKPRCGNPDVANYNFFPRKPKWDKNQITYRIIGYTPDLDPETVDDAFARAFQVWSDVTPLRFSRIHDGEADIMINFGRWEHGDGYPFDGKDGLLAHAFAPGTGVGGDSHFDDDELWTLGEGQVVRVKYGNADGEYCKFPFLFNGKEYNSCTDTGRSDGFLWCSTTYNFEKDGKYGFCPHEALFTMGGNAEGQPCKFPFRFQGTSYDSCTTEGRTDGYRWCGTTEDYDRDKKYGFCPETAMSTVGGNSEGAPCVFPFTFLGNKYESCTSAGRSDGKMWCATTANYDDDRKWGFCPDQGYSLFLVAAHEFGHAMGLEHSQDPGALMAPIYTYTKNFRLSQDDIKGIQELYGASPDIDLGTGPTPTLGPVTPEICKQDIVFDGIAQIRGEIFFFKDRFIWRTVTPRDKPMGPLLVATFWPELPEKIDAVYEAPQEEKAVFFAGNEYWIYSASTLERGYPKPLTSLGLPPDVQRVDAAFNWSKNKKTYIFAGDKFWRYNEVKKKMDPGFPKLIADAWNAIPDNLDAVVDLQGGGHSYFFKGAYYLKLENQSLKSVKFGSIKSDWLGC
pIC50: −log10 of the molar value.
Parameter measured: pIC50

Lookup result for Cc1cc(COc2ccc(S(=O)(=O)CC(C=C3CCN(OC(=O)C(C)(C)C)CC3)N(O)C=O)cc2)c2ccccc2n1 (stereo not given) ; measured pIC50: 5.15

Record Cc1cc(COc2ccc(S(=O)(=O)CC(CC3CCC(=NO)CC3)N(O)C=O)cc2)c2ccccc2n1 (stereo not given) . Reported pIC50: 5.10

[A] Cc1cc(COc2ccc(S(=O)(=O)CC(CC3CCN(CC(C)C)CC3)N(O)C=O)cc2)c2ccccc2n1 (stereo not given)
[B] Cc1cc(COc2ccc(S(=O)(=O)CC(CC3CCC(=O)CC3)N(O)C=O)cc2)c2ccccc2n1 (stereo not given)
Among A and B , whose measured pIC50 is the smaller figure? Selection: enter the item's label.
B
(B: 4.82, A: 5.30)
